System: Tyrosine-protein kinase JAK1 (Homo sapiens) | Read-out: IC50 | Origin: multiple publications

C[C@H](NC(=O)c1cc(F)c(N2CC(CC#N)(n3cc(-c4ncnc5[nH]ccc45)cn3)C2)cc1F)C(F)(F)F | < 0.01 µM
Nc1nc2cnc3[nH]ccc3c2n1N1CCCCC1 | 0.00215 µM
N#CCC1(n2cc(-c3ncnc4[nH]ccc34)cn2)CN(C2CCN(C(=O)c3ccnc(C(F)(F)F)c3F)CC2)C1 | < 0.01 µM
C[C@@H](O)c1nc2cnc3[nH]ccc3c2n1C1CCN(C(=O)C2(C#N)CC2)C1 (stereo partly shown) | 0.1 to 1 µM
C[C@@H](O)c1nc2cnc3ccsc3c2n1[C@H]1CC[C@H](CC#N)OC1 | < 0.1 µM
C[C@@H](OC(=O)CN(C)C)c1nc2cnc3[nH]ccc3c2n1N1CCC(CC#N)CC1 | 0.00385 µM
COCCC(CC#N)n1cc(-c2cccc3nc(NC(=O)C4CC4)cn23)cn1 (stereo not shown) | 0.0283 µM
O=C(/C=C/C(=O)N1CCOCC1)Nc1cc2cc(c1)Nc1nccc(n1)-c1cccc(c1)COC/C=C/COC2 | 0.089 µM
COc1ccc(-c2nc3cnc4[nH]ccc4c3n2C2CCC(C#N)CC2)c(O)c1 (stereo in doubt) | 0.1 to 1 µM
C[C@@H](O)c1nc2cnc3[nH]ccc3c2n1-c1ccc(C#N)cc1 | 0.1 to 1 µM

Req: Need IC50 of `CC(C)S(=O)(=O)C1CCN(Cc2ccc(-c3cccc4nc(NC(=O)C5CC5)cn34)cc2)CC1` , thanks.
Resp: 0.956 µM

Req: Try this compound too: N#C[C@H]1CC[C@H](n2c(-c3cnc(N)s3)nc3cnc4[nH]ccc4c32)CC1 (stereo in doubt)
Resp: 0.01 to 0.1 µM

Req: Would you mind doing `C[C@@H](O)c1nc2cnc3[nH]ccc3c2n1[C@H]1CCN(CCCC(F)(F)F)C1` as well?
Resp: < 0.01 µM

Req: Again, but for C[C@@H](O)c1nc2cnc3[nH]ccc3c2n1C1CCN(S(=O)(=O)c2cccs2)C1 (stereo partly shown)
Resp: 0.01 to 0.1 µM

Req: Also, `C[C@@H](O)c1nc2cnc3[nH]ccc3c2n1[C@@H]1CCN(CCC#N)C1` please.
Resp: 0.01 to 0.1 µM

Req: Moving on to `N#CC[C@]1(n2cc(-c3ncnc4[nH]ccc34)cn2)C[C@H](N2CCC(Oc3cc(CN4CC(O)C4)cc(C(F)(F)F)n3)CC2)C1`
Resp: < 0.01 µM

---

Literature survey of IC50 (system: Tyrosine-protein kinase JAK1 (Homo sapiens)).

N#CCC1(n2cc(-c3cccc4nc(NC(=O)C5CC5)cn34)cn2)CCC(F)(F)CC1 | 10 nM
CS(=O)(=O)c1ccc(C2Nc3cnc4[nH]ccc4c3N2C2CCN(CCC#N)C2)cc1 (stereo not shown) | 10 to 100 nM
C[C@@H](O)c1nc2cnc3[nH]ncc3c2n1[C@H]1C[C@@H](CO)N(CCCC#N)C1 | 10 to 100 nM
O=C(NCC(F)(F)F)N1CCC(n2c(-c3ncc[nH]3)nc3cnc4[nH]ccc4c32)C1 (stereo in doubt) | 100 to 1000 nM
CCCS(=O)(=O)N1CCC(n2c(-c3ccc(CO)o3)nc3cnc4[nH]ccc4c32)C1 (stereo not shown) | 10 to 100 nM
C[C@@H](O)c1nc2cnc3[nH]ccc3c2n1[C@@H]1CN(CCCCC#N)CC12CC2 | 10 to 100 nM
O=C(NCC(F)(F)F)N1CCC(n2c(-c3cccc(O)c3)nc3cnc4[nH]ccc4c32)C1 (stereo not shown) | 100 to 1000 nM
N#CCC1(n2cc(-c3ncnc4[nH]ccc34)cn2)CN([C@H]2CC[C@@H](Oc3cc(CCO)nc(C(F)(F)F)n3)CC2)C1 | < 10 nM
C[C@@H](O)c1nc2cnc3[nH]ccc3c2n1[C@@H]1CN(CCCC#N)CC12CC2 | 10 to 100 nM
C/C=C/C(=O)Nc1cc2cc(c1)Nc1nccc(n1)-c1cccc(c1)COC/C=C/CN(C)C2 | 40 nM

Req: GET /values?readout=IC50&item= `N#CC[C@]1(n2cc(-c3ncnc4[nH]ccc34)cn2)C[C@H](N2CCC(Oc3cc(CN4CCC[C@@H]4CO)cc(C(F)(F)F)n3)CC2)C1`
Resp: < 10 nM

Req: And then `C[C@@H](O)c1nc2cnc3[nH]ccc3c2n1[C@H]1C[C@@H](CO)N(CCCC(F)(F)F)C1` , what is it?
Resp: 10 to 100 nM

Req: Repeat with `Cc1ccc(-c2nc3cnc4[nH]ccc4c3n2-c2cnn(CCCC#N)c2)s1`
Resp: 100 to 1000 nM

Req: How about `C[C@@H](O)c1nc2cnc3[nH]ccc3c2n1[C@H]1CCN(S(=O)(=O)CCC(F)(F)F)C1` ?
Resp: < 10 nM

Req: Cool, now `CC(C)(O)c1cc(O[C@H]2CC[C@@H](N3CC(CC#N)(n4cc(-c5ncnc6[nH]ccc56)cn4)C3)CC2)nc(C(F)(F)F)c1`
Resp: < 10 nM

Req: Then this compound: `N#CC[C@H]1CC[C@H](n2c(/N=N/c3ccc(O)c(C(=O)NCCS(=O)(=O)O)c3)nc3cnc4[nH]ccc4c32)CC1`
Resp: 1.02 nM
